test: chemical genetic growth profiling, strain panel (AID 1159580);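 further: tested at 20 µM; growth read once vehicle control cultures reached saturation at 30 °C; 1 = growth at the plate median or of vehicle wells; lower values mean less growth of the strain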; conditions: S. cerevisiae deletion strains, growth OD, locus YMR205C, strain PFK2 (second series), stronger effect = lower value
Hit rate of the full screen: of about 5,500 compounds, about 2,000 (36%) were called active. Another 18% or so got no clear call; they are omitted. The list shows a part of the results.
attribute measured: normalized growth

{"compound": "O=C(Nc1cccc(C(F)(F)F)c1)Oc1ccc(F)cc1Cl", "val": 1}
{"compound": "CC1(C)C/C(=N/Nc2ccc(C(F)(F)F)cc2)c2cc(C(C)(C)C)c(O)c(O)c2O1", "val": 0.364}
{"compound": "COc1ccccc1C(C[N+](=O)[O-])c1c(N)n(C)c(=O)n(C)c1=O (configuration not stated)", "val": 0.679}
{"compound": "CC12CC[C@@H](O)CC1=CC[C@@H]1C2CCC2(C)C(=O)CC[C@@H]12 (some centres not stated)", "val": 0.916}
{"compound": "COc1cc(N=Cc2cc(Cl)cc(Cl)c2OS(=O)(=O)c2ccc(C)cc2)c(OC)cc1Cl", "val": 0.923}
{"compound": "COc1cc(C(=O)Oc2c(Cl)cc(Cl)cc2C=Nc2ccc([N+](=O)[O-])cc2C#N)cc(OC)c1OC", "val": 0.59}
{"compound": "CCCCCc1ccc(S(=O)(=O)Nc2ccc3c(c2)C(=O)OC3)cc1", "val": 0.963}

###

assay: chemical genetic growth profiling, strain panel (AID 1159580);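 further: tested at 20 µM; growth read once vehicle control cultures reached saturation at 30 °C; 1 = growth at the plate median or of vehicle wells; lower values mean less growth of the strain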; settings: S. cerevisiae deletion strains, growth OD, locus YDR392W, strain spt3, stronger effect = lower value
Out of some 5,500 compounds screened, about 2,000 (36%) were called active. Roughly 18% stayed inconclusive and do not appear here. The list shows a part of the results.
Could you please mark Satisfied for values of normalized growth below 0.9 and Not satisfied for values at or above it?

{"compound": "c1ccc(-c2ccc(C(c3ccccc3)n3ccnc3)cc2)cc1 (centres undefined)", "discrete label": "Satisfied"}
{"compound": "CCCN(CCC)C(=O)C(CCC(=O)O)NC(=O)c1ccccc1 (centres undefined)", "discrete label": "Not satisfied"}
{"compound": "COc1ccccc1OCC(O)CN1CCN(CC(=O)Nc2c(C)cccc2C)CC1 (centres undefined)", "discrete label": "Not satisfied"}
{"compound": "Nc1nc(N)c2nc(CNc3ccc(C(=O)NC(CCC(=O)O)C(=O)O)cc3)cnc2n1 (centres undefined)", "discrete label": "Not satisfied"}
{"compound": "CCOC(=O)CCCCCCCCCCCCC1C=CCC1 (centres undefined)", "discrete label": "Satisfied"}
{"compound": "COc1ccc(/C=C/C(=O)c2ccc(O)cc2O)cc1", "discrete label": "Satisfied"}
{"compound": "C=CCc1cc(OC)c2c(c1OC)OCO2", "discrete label": "Satisfied"}
{"compound": "COc1cc(/C=C/C(=O)O)cc(OC)c1OC", "discrete label": "Not satisfied"}
{"compound": "CC1(C)C2CC(=O)O[C@@]3(C)C4=CC(=O)O[C@@H](c5ccoc5)[C@]4(C)CCC3[C@@]2(C)C=C[C@H]1O (some centres undefined)", "discrete label": "Not satisfied"}
{"compound": "CCCN(CCC)CCc1cccc2c1CC(=O)N2", "discrete label": "Not satisfied"}
{"compound": "COc1ccc(C=CC(=O)c2ccc(O)cc2O)cc1OC", "discrete label": "Satisfied"}
{"compound": "O=C(O)c1cc(=O)c2c(OCC(O)COc3cccc4oc(C(=O)O)cc(=O)c34)cccc2o1", "discrete label": "Not satisfied"}
{"compound": "COc1cc(C)c2c(c1C=O)Oc1c(c(C)c(O)c3c1C(O)OC3=O)OC2=O (centres undefined)", "discrete label": "Not satisfied"}
